assayed system: Lethal factor (Bacillus anthracis)
assay remarks: Lethal factor protease inhibitors, Bacillus anthracis, multiplex microsphere cleavage assay, validation set (AID 588461)
condition info: flow cytometry, at 10 µM, stronger effect = higher value
// reported inhibition per item
The figure you give is taken to be in %; do not add the unit.

Completed entries (count: 5):
Reported inhibition for CCOC(=O)C1=C(C)NC(C)=C(C(=O)OC)C1c1cccc([N+](=O)[O-])c1 (stereo unspecified) was -10

Reported inhibition for "OCCN1CCN(CCCN2c3ccccc3Sc3ccc(C(F)(F)F)cc32)CC1" was -5.1

Reported inhibition for "C[C@H](CCC(=O)O)[C@H]1CC[C@H]2[C@@H]3C(=O)C[C@@H]4CC(=O)CC[C@]4(C)[C@H]3CC(=O)[C@]12C" was -0.9

Reported inhibition for "CC(=O)Nc1ccccc1O" was -1.7

Reported inhibition for "O=C(CCNNC(=O)c1ccncc1)NCc1ccccc1" was 5.5

Others:
Reported inhibition for "CC(=O)Nc1ccc(OS(=O)(=O)c2c(C)cc(C)cc2C)cc1" was -0.9

====

// reported inhibition per item
assayed system: Botulinum neurotoxin type A (Clostridium botulinum) (UniProt P0DPI0)
assay remarks: BoNT/A light chain protease inhibitors, biochemical, multiplex microsphere flow cytometry, validation set (AID 588460)
condition info: at 10 µM, stronger effect = higher value
The figure you give is taken to be in %; do not add the unit.

Reported inhibition for CSCCC(NC(=O)/C(=C/c1ccc2c(c1)OCO2)NC(=O)c1cccc([N+](=O)[O-])c1)C(=O)O (stereo not given) was 0.6

Reported inhibition for "C[C@]12CCC(=O)C=C1CC[C@@H]1[C@@H]2CC[C@]2(C)C(=O)CC[C@@H]12" was -2.1

Others:
Reported inhibition for CCOc1ccc(C(=O)N2CCCC2C(=O)O)cc1 (stereo not given) was 0.5

Reported inhibition for "COC(=O)c1sccc1NC(=O)Nc1ccccc1F" was -1.3

Reported inhibition for "O=C(NCc1ccco1)/C(=C\C=C\c1ccccc1)NC(=O)c1ccccc1Br" was 0

Reported inhibition for "Cc1nc(NCc2ccco2)c(C#N)c2c1COC(C)(C)C2" was -1.2

Reported inhibition for O=C(c1cccc2ccccc12)C1CCCN(C(=O)CCN2CCCO2)C1 (stereo not given) was 1.1

Reported inhibition for "C=C(C)COc1ccc(-c2n[nH]c(C)c2-c2ccc(OC)cc2)c(O)c1" was -0.9

Reported inhibition for "CC(=O)c1ccc(CCCCCCCCCC(=O)O)s1" was 0.3

Reported inhibition for "CC(=Nc1ccccc1)C1=C(O)CCCC1=O" was -0.9

Reported inhibition for Cc1ccc2c(c1)c1c3n2CCCNC3CCC1 (stereo not given) was 1.9

Reported inhibition for CC1(C)C(=O)OC(c2cccs2)C2(CCCCC2)C1=O (stereo not given) was -1.3

Reported inhibition for "CC(C)OC(=O)c1ccc(NC(=O)c2cncc(Br)c2)cc1" was -0.1

Reported inhibition for CC(COc1ccccc1)NC(C)C(O)c1ccc(O)cc1 (stereo not given) was 0.2

Reported inhibition for "CCC1(c2ccccc2)C(=O)NCNC1=O" was -0.9

Reported inhibition for "CN(C)CCCN1c2ccccc2CCc2ccc(Cl)cc21" was -0.7

Reported inhibition for COc1ccc2c(c1OC)C(=O)OC2C1c2c(cc3c(c2OC)OCO3)CCN1C (stereo not given) was -0.4

Reported inhibition for CC(NC(=O)c1cccnc1)C(=O)O (stereo not given) was -0.4

Reported inhibition for CCC(C(=O)Nc1ccc2c(c1)OCCO2)c1ccccc1 (stereo not given) was -0.2

Reported inhibition for "C[C@]12CCC(=O)C=C1CC[C@@H]1[C@@H]2[C@@H](O)C[C@@]2(C)[C@H]1CC[C@]2(O)C(=O)COC(=O)CCC(=O)O" was -2.4

Reported inhibition for "CC(=O)OCC(=O)[C@@]1(O)[C@H](C)C[C@H]2[C@@H]3CCC4=CC(=O)C=C[C@]4(C)[C@@]3(F)[C@@H](O)C[C@@]21C" was 0.4

Reported inhibition for CC(C)C(CCN1C(=O)CCC1=O)C1CCOC(C)(C)C1 (stereo not given) was 0.5

Reported inhibition for "O=C(/C=C/c1ccc(Cl)cc1)NCCc1ccccc1" was 0.4

====

// reported GFP response vs DMSO per item
assay remarks: modulators of MEP2-GFP levels in yeast, confirmation, S. cerevisiae, flow cytometry GFP, cherry picks (AID 2272);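 note: ratio of well signal to plate DMSO mean so 100% equals DMSO level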
condition info: S. cerevisiae MEP2-GFP strain, 3 h, at 10 µM, stronger effect = higher value
The figure you give is taken to be in %; do not add the unit.

Completed entries (count: 5):
Reported GFP response vs DMSO for CCC(C)N1C(=O)/C(=C\c2cnc(N(C)C)nc2)C(=O)NC1=S (stereo not drawn) was 104

Reported GFP response vs DMSO for "O=C1NC(=O)N(CCc2ccc(F)cc2)C(=O)/C1=C/c1ccco1" was 94.4

Reported GFP response vs DMSO for "Nc1ccc(N=Nc2ccccc2)cc1" was 103

Reported GFP response vs DMSO for "N#CC(C#N)=NNc1ccc(-n2ccc(C(F)(F)F)n2)cc1" was 114

Reported GFP response vs DMSO for "CN1C(=O)C(=Cc2ccc(SC3CCCCC3)o2)C(=O)N(C)C1=O" was 98.8

Others:
Reported GFP response vs DMSO for "O=C1NC(=O)N(Cc2ccco2)C(=O)/C1=C\c1ccc(-c2ccc(F)cc2)o1" was 99.3

Reported GFP response vs DMSO for "C[C@H](O)[C@H]1CC[C@H]2[C@@H]3CCC4=CC(=O)CC[C@]4(C)[C@H]3CC[C@]12C" was 95.7

Reported GFP response vs DMSO for "C[C@]12CCC(=O)C=C1CC[C@@H]1[C@@H]2CC[C@]2(C)C(=O)CC[C@@H]12" was 94.1

====

assayed system: Beta-adrenergic receptor kinase 1 (Homo sapiens) (UniProt P25098)
Sequence (P25098 whole entry, looked up): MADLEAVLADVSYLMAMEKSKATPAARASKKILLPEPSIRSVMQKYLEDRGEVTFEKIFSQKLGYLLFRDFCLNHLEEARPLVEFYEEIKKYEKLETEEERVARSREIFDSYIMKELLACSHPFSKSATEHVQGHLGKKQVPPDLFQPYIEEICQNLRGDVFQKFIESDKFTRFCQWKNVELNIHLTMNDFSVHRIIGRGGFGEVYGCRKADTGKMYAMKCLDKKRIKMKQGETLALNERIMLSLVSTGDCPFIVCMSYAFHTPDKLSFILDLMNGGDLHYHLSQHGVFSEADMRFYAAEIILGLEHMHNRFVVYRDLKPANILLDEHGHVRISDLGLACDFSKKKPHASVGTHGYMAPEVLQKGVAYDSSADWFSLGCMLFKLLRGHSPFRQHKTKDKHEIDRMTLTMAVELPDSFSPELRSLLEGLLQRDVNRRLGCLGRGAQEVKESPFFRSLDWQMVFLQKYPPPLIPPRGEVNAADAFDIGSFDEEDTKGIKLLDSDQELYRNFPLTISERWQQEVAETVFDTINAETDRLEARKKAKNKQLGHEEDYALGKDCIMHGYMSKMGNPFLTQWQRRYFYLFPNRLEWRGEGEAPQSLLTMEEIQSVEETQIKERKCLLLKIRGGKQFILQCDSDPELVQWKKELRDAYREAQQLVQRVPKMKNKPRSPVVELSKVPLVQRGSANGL
assay remarks: GRK2 binders displacing RNA aptamer, biochemical, validation, human GRK2, bead flow cytometry (AID 488806)
condition info: bead-bound GRK2, FAM-aptamer displacement, at 10 µM, stronger effect = higher value
// reported aptamer binding inhibition per item
The figure you give is taken to be in %; do not add the unit.

Completed entries (count: 10):
Reported aptamer binding inhibition for "CC(C)CCC1(CN2CCCC2=O)C(=O)NC(=O)NC1=O" was 1

Reported aptamer binding inhibition for CCn1c(O)c(C(=O)CC2NCCc3ccccc32)c(=O)n(CC)c1=S (stereo not drawn) was 1

Reported aptamer binding inhibition for "NNC(=O)c1ccc(Cl)cc1" was -2

Reported aptamer binding inhibition for "CC(=O)c1ccc(-c2ccccc2)cc1" was -3

Reported aptamer binding inhibition for "NC(=O)CN1CCCC1=O" was -4

Reported aptamer binding inhibition for CC(C)CC12CN3CCN(CC(C3)C1O)C2 (stereo not drawn) was -7

Reported aptamer binding inhibition for CN1C2CCC1CC(OC(=O)c1ccc(Cl)cc1)C2 (stereo not drawn) was -1

Reported aptamer binding inhibition for "NCCc1ccc(O)cc1" was 2

Reported aptamer binding inhibition for O=S(=O)(c1ccc(F)cc1)N1CCCCC1c1cccnc1 (stereo not drawn) was -2

Reported aptamer binding inhibition for "C[C@@H]1O[C@@H](O[C@H]2C[C@@H](O)[C@]3(CO)[C@H]4[C@H](O)C[C@]5(C)[C@@H](C6=CC(=O)OC6)CC[C@]5(O)[C@@H]4CC[C@]3(O)C2)[C@H](O)[C@H](O)[C@H]1O" was 7

Others:
Reported aptamer binding inhibition for "C[C@H](O)[C@H]1CC[C@H]2[C@@H]3CCC4=CC(=O)CC[C@]4(C)[C@H]3CC[C@]12C" was 0

====

// reported inhibition per item
assayed system: Lethal factor (Bacillus anthracis) (UniProt P15917)
Sequence (P15917 whole entry, looked up): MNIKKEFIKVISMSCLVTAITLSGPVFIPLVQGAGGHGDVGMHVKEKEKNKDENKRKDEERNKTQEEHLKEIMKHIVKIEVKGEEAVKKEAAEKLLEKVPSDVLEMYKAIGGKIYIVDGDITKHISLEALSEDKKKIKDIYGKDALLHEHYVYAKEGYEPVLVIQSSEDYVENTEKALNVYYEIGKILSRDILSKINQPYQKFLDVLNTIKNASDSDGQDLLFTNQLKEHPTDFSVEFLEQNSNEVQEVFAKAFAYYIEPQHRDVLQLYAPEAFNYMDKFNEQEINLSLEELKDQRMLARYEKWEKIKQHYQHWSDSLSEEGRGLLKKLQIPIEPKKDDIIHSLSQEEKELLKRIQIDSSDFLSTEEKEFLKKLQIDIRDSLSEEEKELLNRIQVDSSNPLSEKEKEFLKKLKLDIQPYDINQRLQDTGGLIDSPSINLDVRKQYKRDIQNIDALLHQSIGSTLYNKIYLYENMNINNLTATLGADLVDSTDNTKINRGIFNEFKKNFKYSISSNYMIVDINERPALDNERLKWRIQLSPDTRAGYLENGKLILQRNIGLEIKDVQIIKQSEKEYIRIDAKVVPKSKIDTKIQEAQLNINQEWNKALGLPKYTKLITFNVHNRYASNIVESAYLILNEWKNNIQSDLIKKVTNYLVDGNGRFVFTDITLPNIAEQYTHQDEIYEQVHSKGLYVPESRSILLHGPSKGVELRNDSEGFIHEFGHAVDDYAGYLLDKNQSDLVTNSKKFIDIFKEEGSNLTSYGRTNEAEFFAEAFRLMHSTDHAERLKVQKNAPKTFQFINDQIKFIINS
assay remarks: Lethal factor protease inhibitors, Bacillus anthracis, multiplex microsphere cleavage assay, validation set (AID 588461)
condition info: flow cytometry, at 10 µM, stronger effect = higher value
The figure you give is taken to be in %; do not add the unit.

Completed entries (count: 2):
Reported inhibition for "O=c1c2ccccc2nc2n1CCCN2" was -7.9

Reported inhibition for "C[C@H]1C[C@@H]2[C@H]([C@@H](O)C[C@@]3(C)[C@H]2CC[C@]3(O)C(=O)CO)[C@@]2(C)C=CC(=O)C=C12" was -0.7

Others:
Reported inhibition for "Cc1oc2cc(O)ccc2c(=O)c1Oc1ccccc1Br" was -0.7

Reported inhibition for "C=CCOc1ccc(C(=O)CC)cc1OC" was -1.9

Reported inhibition for CCCNCC(O)COc1ccccc1C(=O)CCc1ccccc1 (stereo unspecified) was -1.2

====

assayed system: GTPase HRas (Homo sapiens) (UniProt P01112)
Sequence (P01112 whole entry, looked up): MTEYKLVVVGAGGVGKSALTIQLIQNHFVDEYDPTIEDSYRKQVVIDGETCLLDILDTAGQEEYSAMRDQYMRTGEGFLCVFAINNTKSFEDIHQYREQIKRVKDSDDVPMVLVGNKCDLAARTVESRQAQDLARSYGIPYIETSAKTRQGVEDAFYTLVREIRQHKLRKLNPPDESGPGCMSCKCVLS
assay remarks: inhibitors of GTP binding to wildtype Ras, dose response, biochemical, multiplex bead flow cytometry (AID 1335)
condition info: bead-based flow cytometry, Bodipy-GTP binding to GST-Ras; at 100 µM (top of the series)
// reported GTP binding, percent of control per item
The figure you give is taken to be in %; do not add the unit.

Reported GTP binding, percent of control for "O=C(O)c1cn(Cc2ccccc2Cl)c2ccccc12" was 82.2

Reported GTP binding, percent of control for "COCCCn1c(N)c(C(=O)Nc2sc3c(c2C(=O)OC)CCCC3)c2nc3ccccc3nc21" was 51.7

Reported GTP binding, percent of control for "O=C(O)c1cn(Cc2ccc(Cl)cc2)c2ccccc12" was 89.3

Reported GTP binding, percent of control for "O=C(O)c1cn(Cc2ccc(F)cc2)c2ccccc12" was 112

# context switch: different compound, same GTP binding, percent of control
Reported GTP binding, percent of control for CC(Oc1ccc(-c2ccccc2)cc1)C(=O)O (stereo unspecified) was 172
